- Assayed target: HPK1 (Homo sapiens (Human))
- Sequence (Q92918 whole entry): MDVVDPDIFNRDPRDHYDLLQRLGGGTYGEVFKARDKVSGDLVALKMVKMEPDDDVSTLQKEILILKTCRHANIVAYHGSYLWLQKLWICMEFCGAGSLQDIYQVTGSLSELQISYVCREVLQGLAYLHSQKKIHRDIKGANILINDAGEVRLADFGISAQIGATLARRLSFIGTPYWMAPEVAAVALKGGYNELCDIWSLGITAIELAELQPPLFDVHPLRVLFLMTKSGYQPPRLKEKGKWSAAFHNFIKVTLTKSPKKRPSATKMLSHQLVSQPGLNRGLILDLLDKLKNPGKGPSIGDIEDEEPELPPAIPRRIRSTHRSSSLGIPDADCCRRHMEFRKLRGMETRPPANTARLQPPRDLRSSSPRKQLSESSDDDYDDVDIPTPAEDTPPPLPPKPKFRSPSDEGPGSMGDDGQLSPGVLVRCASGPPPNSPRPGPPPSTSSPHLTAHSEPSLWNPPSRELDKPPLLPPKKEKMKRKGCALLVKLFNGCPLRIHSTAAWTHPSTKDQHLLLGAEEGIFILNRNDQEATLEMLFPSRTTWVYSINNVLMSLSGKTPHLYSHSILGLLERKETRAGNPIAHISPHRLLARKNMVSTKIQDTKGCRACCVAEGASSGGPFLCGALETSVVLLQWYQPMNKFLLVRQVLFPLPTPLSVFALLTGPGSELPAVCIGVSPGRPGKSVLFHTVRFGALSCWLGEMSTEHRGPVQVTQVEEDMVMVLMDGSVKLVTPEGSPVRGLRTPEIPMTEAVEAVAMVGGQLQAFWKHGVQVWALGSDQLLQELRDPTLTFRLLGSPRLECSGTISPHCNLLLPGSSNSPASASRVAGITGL
pIC50: −log10 of the molar value.
List of pIC50 values.

Item Cn1ccc2c(-c3ccc(Nc4cc(C5CCNCC5)n[nH]4)c4c3CNC4=O)ccnc21 with HPK1 (Homo sapiens (Human)) - pIC50? > 7.00

Item CN1CCN(c2cccc(Nc3ccc(-c4cnc5cc(Cl)ccn45)c4c3C(=O)NC4)n2)CC1 with HPK1 (Homo sapiens (Human)) - pIC50? > 7.00

Item COc1ccc2c(-c3ncc(Nc4ccc(N5CCN(C)CC5)cn4)c4c3CNC4=O)c[nH]c2c1 with HPK1 (Homo sapiens (Human)) - pIC50? 6.00 to 7.00

Item CN1CCc2ccc(Nc3cnc(-c4ccnc5c4ccn5C)c4c3C(=O)NC4)nc2C1 with HPK1 (Homo sapiens (Human)) - pIC50? < 6.00

Item CN(C)Cc1nc(Nc2ccc(-c3cnc4cc(F)ccn34)c3c2C(=O)NC3)ccc1N1CCC[C@H](C(C)(C)O)C1 with HPK1 (Homo sapiens (Human)) - pIC50? > 7.00

Item O=C1NCc2c(-c3cnc4cc(F)ccn34)ccc(Nc3ccc([C@@H]4CCOC4)cn3)c21 with HPK1 (Homo sapiens (Human)) - pIC50? > 7.00

Item O=C1NCc2c(-c3cncn4ccnc34)ncc(Nc3ccc(N4CCC(O)CC4)cn3)c21 with HPK1 (Homo sapiens (Human)) - pIC50? < 6.00

Item CN1CCN(c2ccc(Nc3cnc(-c4cccc5[nH]ccc45)c4c3C(=O)NC4)nc2)CC1 with HPK1 (Homo sapiens (Human)) - pIC50? 6.00 to 7.00
